- target.system: T1, TCE-10 (anti-CD3 scFv R100A; anti-TROP2 wt)
- T1 construct: scFv on the Fab heavy chain; also called TCE-10 (R100A)
- protocol.text: competition ELISA, TCE on captured CD3
Where no end group is shown, it is not given here.
Entries and their IC50
measurement.kind: IC50 (µM)

[[record]]
binder = "AYCGPEFDESVGCM (cysteine pairing not given here; also: biotinylated, site not given here, mask peptide for the CD3 scFv) [Peptide-72]"
result = 45.6

[[record]]
binder = "GSQCLGPEWEVCPY (cysteine pairing not given here; also: biotinylated, site not given here, mask peptide for the CD3 scFv) [Peptide-66]"
result = 13.1

[[record]]
binder = "DWCWYSPDNDGLCD (cysteine pairing not given here; also: biotinylated, site not given here, mask peptide for the CD3 scFv) [Peptide-68]"
result = 88.9

[[record]]
binder = "YLCGPDGDETLACY (cysteine pairing not given here; also: biotinylated, site not given here, mask peptide for the CD3 scFv) [Peptide-70]"
result = 0.24

[[record]]
binder = "VDCGPDGDESILCY (cysteine pairing not given here; also: biotinylated, site not given here, mask peptide for the CD3 scFv) [Peptide-71]"
result = 1.35

[[record]]
binder = "ASQCLGPEWEVCPY (cysteine pairing not given here; also: biotinylated, site not given here, mask peptide for the CD3 scFv) [Peptide-74]"
result = 16.1

[[record]]
binder = "GSACLGPEWEVCPY (cysteine pairing not given here; also: biotinylated, site not given here, mask peptide for the CD3 scFv) [Peptide-75]"
result = 4.74

[[record]]
binder = "VYCGPEFDESVGCM (cysteine pairing not given here; also: biotinylated, site not given here, mask peptide for the CD3 scFv) [Peptide-67]"
result = 18.6

